Attribution: ChEMBL document CHEMBL5030547

Quick reference for IC50 among some molecules
# System: HCT-116
# assay.explanation: Cytotoxicity against human HCT-116 cells assessed as reduction in cell viability after 48 hrs
# Format: functional, cell-based
# condition.context: HCT-116, 48 h

The cases that follow already have their IC50 on record.
COc1ccccc1-c1cc(COC(Cc2cn(C3CCN(Cc4ccc([N+](=O)[O-])cc4)CC3)nn2)c2ccc(Br)cc2)on1 (centres undefined) :: > 25 µM
O=[N+]([O-])c1ccc(CN2CCC(n3cc(CC(OCc4cc(-c5cccc(Br)c5)no4)c4ccc(Br)cc4)nn3)CC2)cc1 (centres undefined) :: > 25 µM
O=[N+]([O-])c1ccc(CN2CCC(n3cc(CC(OCc4cc(-c5ccccc5F)no4)c4ccc(Br)cc4)nn3)CC2)cc1 (centres undefined) :: 9 µM

Please give measured IC50 of the following entry: O=[N+]([O-])c1ccc(CN2CCC(n3cc(CC(OCc4cc(-c5ccccc5)no4)c4ccc(Br)cc4)nn3)CC2)cc1 (centres undefined)
> 25 µM

###

# System: HCT-116
# assay.explanation: Cytotoxicity against human HCT-116 cells assessed as reduction in cell viability after 48 hrs
# Type: functional, cell-based
# condition.context: HCT-116, 48 h
pIC50: −log10 of the molar value.
The following compounds are shown together with reported pIC50 values.

System HCT-116. Read-out pIC50. Item N#Cc1cccc(-c2cc(COC(Cc3cn(C4CCN(Cc5ccc([N+](=O)[O-])cc5)CC4)nn3)c3ccc(Br)cc3)on2)c1 (centres undefined) . Report value.
< 4.60

Retrieve pIC50 on HCT-116; query COc1ccc(-c2cc(COC(Cc3cn(C4CCN(Cc5ccc([N+](=O)[O-])cc5)CC4)nn3)c3ccc(Br)cc3)on2)cc1 (centres undefined)
< 4.60

With HCT-116 as the test system, provide measured pIC50 for this compound: "COc1cccc2c1C(=O)c1c(O)c3c(c(O)c1C2=O)C[C@@](O)(C(=O)CO)C[C@@H]3O[C@H]1C[C@H](N)[C@H](O)[C@H](C)O1"
7.10

Please report pIC50 with HCT-116 for item O=[N+]([O-])c1ccc(CN2CCC(n3cc(CC(OCc4cc(-c5ccccc5Br)no4)c4ccc(Br)cc4)nn3)CC2)cc1 (centres undefined) .
< 4.60

Report value only: pIC50, HCT-116, O=[N+]([O-])c1ccc(CN2CCC(n3cc(CC(OCc4cc(-c5cccc(F)c5)no4)c4ccc(Br)cc4)nn3)CC2)cc1 (centres undefined)
5.22

# lookup: HCT-116 pIC50, key = O=[N+]([O-])c1ccc(CN2CCC(n3cc(CC(OCc4cc(-c5ccc(F)cc5)no4)c4ccc(Br)cc4)nn3)CC2)cc1 (centres undefined)
< 4.60

Report its pIC50 with HCT-116 as the test system: N#Cc1ccc(-c2cc(COC(Cc3cn(C4CCN(Cc5ccc([N+](=O)[O-])cc5)CC4)nn3)c3ccc(Br)cc3)on2)cc1 (centres undefined)
< 4.60

Recall the reported pIC50 of COc1cccc(-c2cc(COC(Cc3cn(C4CCN(Cc5ccc([N+](=O)[O-])cc5)CC4)nn3)c3ccc(Br)cc3)on2)c1 (centres undefined) when tested on HCT-116.
< 4.60

Identify measured pIC50 obtained with HCT-116 for O=[N+]([O-])c1ccc(CN2CCC(n3cc(CC(OCc4cc(-c5ccc(Br)cc5)no4)c4ccc(Br)cc4)nn3)CC2)cc1 (centres undefined) .
< 4.60
